Reference for the values: the RNAGym collection of RNA variant scans (doi:10.1002/anie.201605470)

B1: Osa-1-4 twister ribozyme (parent)
chain: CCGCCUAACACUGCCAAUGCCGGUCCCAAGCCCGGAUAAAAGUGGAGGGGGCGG

Variants of: B1
Assay: self-cleavage, relative activity (ratio to wild type); higher = more cleavage; co-transcriptional
# maps each entry to its self-cleavage
Please reply with the number alone, leaving off any unit.

Example results:
- SEQUENCE: "CCGCCUAACACUGCCAAUGCCGGUCCCAAGGCCGGAUAAAAGUGGAGGGGGUGG"
  RECORDED METRIC: "self-cleavage"
  MEASURED NUMBER: 0.12
- SEQUENCE: "CCGCCUAACACUGCCAAUGCCGGUCCCAAGCCCGGUGAAAAGUGGAGGGGGCGG"
  RECORDED METRIC: "self-cleavage"
  MEASURED NUMBER: 1.05
- SEQUENCE: "CCGCCUAACACUGCCAAUGCCGGUUCCAAGCCGGGAUAAAAGUGGAGGGGGCGG"
  RECORDED METRIC: "self-cleavage"
  MEASURED NUMBER: 0.06

Attention now turns to another entry.
Prompt: For CCGCCUAACACUGCCAAAGCCGGUCCCAAGCCCGGCUAAAAGUGGAGGGGGCGG , what is its reported self-cleavage?
Response: 0.55
